Entry source: PubChem BioAssay (NCI)

Could you please report measured TGI for the items listed next?
# System: SK-MEL-5 melanoma
# procedureText: NCI tumour cell line growth inhibition, 48 h
Where a SMILES comes first, the peptide text is derived from it. The star is where a group is joined. Cbz = O=C(OCc1ccccc1)*; OBn = c1ccc(CO*)cc1

O=C1c2c(n(Cc3ccccc3)c(=O)n2Cc2ccccc2)C(=O)N1Cc1ccccc1
> 100 µM
CC(=O)CCCCO
> 100 µM
OC1(c2cc3ccccc3s2)CCCCC1
> 100 µM
O=C1c2c(nc3ccccc3c2-c2ccccc2)CN1Nc1ccccn1
> 100 µM
COC(=O)/C=C(/C(=O)OC)c1c(C)c(C)c2c(C)cc(C)cc(C)c1-2
> 100 µM

Respectfully, I request TGI for each entry included below.
1. CCCCOC(=O)NC(=O)c1cn(CCSCCOC(=O)NCCCCCCNC(=O)OCCSCCn2cc(C(=O)NC(=O)OCCCC)c(=O)[nH]c2=O)c(=O)[nH]c1=O
2. O=C(OCC1CO1)c1cccs1 (stereo not given)
3. O=c1[nH]nc(-c2ccccc2)n1/N=C/c1c(O)ccc2ccccc12
4. C=C(C)C(=O)[C@@]12C(=O)[C@@H](C)CC[C@H]1[C@H](C)C[C@@H]2C=C(C)C
5. CCN(c1ccc(Br)cc1)c1c(Br)c(=O)nc2ccccn12

[reply]
1: > 100 µM; 2: > 100 µM; 3: > 100 µM; 4: 45.1 µM; 5: > 100 µM

Respectfully, I request TGI for each entry included below.
1. C=CCNC(=O)NC1=CSC2=NC(=O)C3(NN12)c1ccccc1-c1ccccc13
2. CO[C@@H]1/C=C(C)/C=C/[C@@H](C)/C=C(\C)C(=O)OC(/C(C)=C/C=C(\C)CNC(=O)[C@H](CO)NC=O)[C@@H](C)/C=C/C=C/[C@H](OC)CC/C=C(C)/C=C/C1 (stereo not given in full)
3. CCOc1nc(-c2ccccc2)cc(-c2ccc(N3CCOCC3)cc2)c1C#N
4. O=Nc1ccc2ccccc2c1O
5. O=C(O)c1ccc(N/C=C2\C(=O)c3ccccc3OC2O)cc1O (stereo not given)
6. COC(=O)C(Cc1ccc(O)cc1)NC(=O)C(CC(=O)OCc1ccccc1)NC(=O)OCc1ccccc1 (stereo not given) (Cbz-Asp(OBn)-Tyr-OMe; configuration not given here)

[reply]
> 10 µM
< 0.005 µM
> 100 µM
8.41 µM
37.6 µg/mL
34.1 µM

* * *

# System: UACC-257 melanoma
# procedureText: NCI tumour cell line growth inhibition, 48 h; in the data active = GI50 below about 0.43 µM; inactive = the rest
// one of active, inactive, no free text

Cc1cc(C)c(O)c(CN(C)Cc2cc(Cl)cc(Cl)c2O)c1
inactive
C#Cc1c(C(N)=O)ncn1C1OC(COP(=O)(OCc2ccc([N+](=O)[O-])o2)N(C)CCCCCl)C(O)C1O (stereo unspecified)
inactive
Cc1ccc(SC2=CC(=O)c3nc4ccccc4c4ccnc2c34)cc1
inactive

[ask] Recorded call for "COc1ccc(-c2ccc(-c3ccc(-c4ccc(C(=N)N)cc4)s3)s2)cc1OC" ?
[reply] inactive

[ask] Recorded call for "COc1ccccc1C#Cc1ccccc1C#CCCCCCC#Cc1ccccc1C#Cc1ccccc1OC" ?
[reply] inactive

[ask] Recorded call for COc1ccc2nc3cc(Cl)ccc3c(NCCCNCCC(C)O)c2c1 (stereo unspecified) ?
[reply] inactive

[ask] Recorded call for "NS(=O)(=O)c1cccc(N=Cc2c(O)[nH]c3ccccc23)c1" ?
[reply] inactive

[ask] Recorded call for "O=C(Nc1ccccc1O)c1ccc(Oc2cccc(C(=O)Nc3ccccc3O)c2)cc1" ?
[reply] inactive

[ask] Recorded call for "CN(C)C(=O)c1cc2cnc(Nc3ccc(-c4csc5c(=O)cc(N6CCOCC6)oc45)cc3)nc2n1C1CCCC1" ?
[reply] active

[ask] Recorded call for "COc1ccc(-n2c3c(c4c(CN5CCOCC5)c(O)ccc42)CCc2ccccc2C3=O)cc1" ?
[reply] inactive

[ask] Recorded call for "O=c1cc(-c2ccccc2)[nH]n1-c1nc2ccccc2[nH]1" ?
[reply] inactive

* * *

# System: NCI-H522 lung
# procedureText: NCI tumour cell line growth inhibition, 48 h
Could you please report measured TGI for the items listed next?
Numbers only, in µM.

Previously resolved entries follow.
Cc1cc(C)c(O)c(CN(C)Cc2cc(Cl)cc(Cl)c2O)c1
6.14
COc1cc(-c2nc3sc4c(c3c(=O)[nH]2)CCCCCC4)cc(OC)c1OC
9.46
COc1cc(CC2c3cc(OC)c(OC)cc3CCN2C)c(Oc2cc3c(cc2OC)-c2c(O)c(OC)cc4c2C(C3)N(C)CC4)cc1OC (configuration not stated)
39.3

Respectfully, I request TGI for each entry included below.
1. c1ccc2c(c1)nc(NC1CCCC1)c1[nH]c(C3CCCC3)nc12
2. COc1cccc(Cc2c3cc(OC)ccc3cc[n+]2C)c1
3. CCOC(=O)/C=C(/C(=O)OCC)n1cc(C)c(=O)n(Cc2cn(COCCOC(C)=O)nn2)c1=O
4. O=c1cc(-c2ccccc2)[nH]n1-c1nc2ccccc2[nH]1
5. COc1cc(/C=C2\CN(C)C/C(=C\c3cc(CN4CCCCC4)c(O)c(OC)c3)C2=O)cc(CN2CCCCC2)c1O
6. COC(=O)/C=C(/C(=O)OC)c1c(C)c(C)c2c(C)cc(C)cc(C)c1-2

[reply]
36.9
92.3
6.9
17.6
11.9
52.3

* * *

# System: RXF 393 renal
# procedureText: NCI tumour cell line growth inhibition, 48 h
readoutLabel: TGI

Previously resolved entries follow.
C1CCC(OC2CSC2)OC1 (stereo unspecified)
> 100 µM
C=CCC1(O)c2cccc(NCCO)c2C(=O)c2c(NCCO)cccc21
> 100 µM
O=C1CN(C(=O)c2ccccc2)Cc2[nH]c3ccccc3c21
> 100 µM
COc1ccccc1/C=N\N=C(N/N=C/c1ccccc1OC)N/N=C/c1ccccc1OC
> 100 µM
COC(=O)C1(F)C(=O)NC(=O)NC1O (stereo unspecified)
> 100 µM

Entry "CN(C)CCNC(=O)c1cccc2nc3c(nc12)-c1ccccc1C3=O" ; TGI = 34.4 µM

* * *

Could you please report measured TGI for the items listed next?
# System: DU-145 prostate
# procedureText: NCI tumour cell line growth inhibition, 48 h
Give bare numbers, in µM.

COC(=O)[C@]12CC[C@@H](C)[C@H](C)[C@@H]1C1=CC[C@@H]3[C@@]4(C)C=C(O)C(=O)[C@@]5(C)COC(=C54)C[C@@]3(C)[C@]1(C)CC2
28.2
Cc1cc(C)c(O)c(CN(C)Cc2cc(Cl)cc(Cl)c2O)c1
20.8
C=C1C(=O)O[C@H]2[C@H]1CC/C(COC(=O)NCCc1c[nH]c3ccc(OC)cc13)=C\CC[C@@]1(C)O[C@@H]21
4.43

Entry "CN(C)C(=O)c1cc2cnc(Nc3ccc(-c4csc5c(=O)cc(N6CCOCC6)oc45)cc3)nc2n1C1CCCC1" ; TGI = 1.32

* * *

Could you please report measured TGI for the items listed next?
# Test system: MOLT-4 leukemia
# procedureText: NCI tumour cell line growth inhibition, 48 h

Respectfully, I request TGI for each entry included below.
1. O=C(C(=O)N1CC2C=CC1CC2)c1c[nH]c2ccccc12 (stereo not given)
2. COc1cc(-c2nc3sc4c(c3c(=O)[nH]2)CCCCCC4)cc(OC)c1OC

[reply]
1: > 100 µM; 2: > 33.2 µM

Respectfully, I request TGI for each entry included below.
1. Cc1cc(NS(=O)(=O)c2ccc(NC(=O)c3cccc4c(Nc5ccc(S(=O)(=O)N=C(N)N)cc5)c5ccccc5nc34)cc2)no1
2. CN(C)C(=O)c1cc2cnc(Nc3ccc(-c4csc5c(=O)cc(N6CCOCC6)oc45)cc3)nc2n1C1CCCC1
3. O=C1CN(C(=O)c2ccccc2)Cc2[nH]c3ccccc3c21

[reply]
1: > 100 µM; 2: 3.26 µM; 3: > 100 µM

* * *

# Test system: DMS 114 small cell lung
# procedureText: NCI tumour cell line growth inhibition, 48 h
readoutLabel: TGI

COc1ccc(/C(=N/Nc2ccccc2)C(c2ccc(OC)cc2)C2OC(=O)c3ccccc32)cc1 (stereo not given)
> 100 µM
C1OC1CO[C@@H]1CO[C@H]2[C@@H]1OC[C@H]2OCC1CO1 (stereo not given in full)
> 100 µM
Cc1cccc(C2=NC(C)(C)C(C)(C)N=C2c2cccc(C)n2)n1
> 100 µM
c1ccc2c(c1)nc(NC1CCCC1)c1[nH]c(C3CCCC3)nc12
35.4 µM

Entry COc1cc2c(cc1O)CC13CCC(=O)N1CCc1cc(OC)c(O)c-2c13 (stereo not given) ; TGI = > 68.1 µM

* * *

# Test system: SK-OV-3 ovarian
# procedureText: NCI tumour cell line growth inhibition, 48 h
readoutLabel: TGI

CNC(=O)c1cc(NC(=O)N(CCC#N)CCN(C(=O)N[C@@H](Cc2ccccc2)C(=O)N[C@@H](CC(C)C)C(=O)NC)c2ccccc2)ccc1OC
> 100 µM
Cc1cc(Cc2cc(C)cc(C(C)(C)C)c2O)c(O)c(C(C)(C)C)c1
24.2 µM
[N-]=[N+]=NCc1cccc(Nc2cc(=O)[nH]c(=O)[nH]2)c1
> 100 µM
COc1ccc2c(c1)C(c1ccccc1Cl)=Nc1c(n[nH]c1C)N2
> 25 µM

Entry "CC(=O)CCCCO" ; TGI = > 100 µM
